- ASSAY_SYSTEM: Phosphatidylinositol 4,5-bisphosphate 3-kinase catalytic subunit delta isoform (Homo sapiens, UniProt O00329)
- Sequence (O00329 whole entry, canonical isoform): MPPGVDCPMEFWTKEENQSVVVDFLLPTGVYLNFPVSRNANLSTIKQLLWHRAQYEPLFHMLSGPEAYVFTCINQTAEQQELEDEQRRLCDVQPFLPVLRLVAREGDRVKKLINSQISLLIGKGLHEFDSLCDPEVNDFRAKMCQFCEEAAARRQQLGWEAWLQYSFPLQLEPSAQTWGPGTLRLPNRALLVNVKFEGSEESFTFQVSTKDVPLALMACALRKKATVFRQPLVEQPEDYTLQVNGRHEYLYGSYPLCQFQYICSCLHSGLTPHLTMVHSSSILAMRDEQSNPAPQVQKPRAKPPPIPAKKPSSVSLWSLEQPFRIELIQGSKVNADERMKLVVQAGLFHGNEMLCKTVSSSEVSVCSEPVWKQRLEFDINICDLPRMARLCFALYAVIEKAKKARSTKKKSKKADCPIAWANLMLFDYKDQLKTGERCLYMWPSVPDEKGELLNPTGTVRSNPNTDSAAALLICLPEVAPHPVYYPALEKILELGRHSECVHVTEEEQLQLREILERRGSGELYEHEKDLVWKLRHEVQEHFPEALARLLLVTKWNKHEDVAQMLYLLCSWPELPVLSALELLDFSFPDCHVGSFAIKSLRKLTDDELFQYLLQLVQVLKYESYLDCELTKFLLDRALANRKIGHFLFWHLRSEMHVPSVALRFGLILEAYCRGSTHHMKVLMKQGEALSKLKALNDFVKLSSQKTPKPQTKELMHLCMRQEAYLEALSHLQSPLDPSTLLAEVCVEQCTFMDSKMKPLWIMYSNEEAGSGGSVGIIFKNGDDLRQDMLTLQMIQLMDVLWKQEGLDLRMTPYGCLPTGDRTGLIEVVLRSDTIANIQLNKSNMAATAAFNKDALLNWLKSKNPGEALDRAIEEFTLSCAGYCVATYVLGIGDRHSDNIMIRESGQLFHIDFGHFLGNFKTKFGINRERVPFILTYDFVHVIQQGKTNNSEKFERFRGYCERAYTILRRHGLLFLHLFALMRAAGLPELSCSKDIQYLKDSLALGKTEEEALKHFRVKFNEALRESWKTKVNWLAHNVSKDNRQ
- EXPERIMENT_NOTES: Inhibition of PI3K delta (unknown origin) using phosphatidyl inositol as substrate measured after 60 mins in presence of ATP by Kinase-Glo Plus reagent-based luminescence assay
READOUT_NAME: IC50 (nM)

{"COMPOUND_STRING": "COc1ncc(-c2ccc3ncnc(N[C@H]4CCCN(C(=O)CCl)C4)c3c2)cc1C#N", "IC50 (nM)": 8.9}

A: COc1ncc(-c2ccc3ncnc(N[C@H]4CCCN(C(=O)C5CCN(C)CC5)C4)c3c2)cc1C#N
B: CCOC(=O)CN1CCC[C@H](Nc2ncnc3ccc(-c4cnc(OC)c(C#N)c4)cc23)C1
Lab note: check whether A or B shows the higher recorded IC50. Please respond with the label that marks your chosen entry.
A
